Cited source for all entries: PubChem BioAssay AID1159580

- Measurement Notes: chemical genetic growth profiling, strain panel (AID 1159580);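 also: tested at 20 µM; growth read once vehicle control cultures reached saturation at 30 °C; 1 = growth at the plate median or of vehicle wells; lower values mean less growth of the strain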
- Experimental Context: S. cerevisiae deletion strains, growth OD, locus YLR357W, strain rsc2, stronger effect = lower value
Screen size: about 5,500 compounds; about 2,000 (36%) were called active. About 18% were inconclusive and are not listed. Some of the results follow.
For each of the compounds below, state its normalized growth.
Respond numerically, and do not add a unit to the figure.

Request: Item O=c1c2cc(O)c(O)cc2oc2cc(O)c(C3O[C@H](CO)[C@H](O)[C@@H](O)[C@H]3O)c(O)c12 (stereo not given in full) has what recorded normalized growth?
Response: 1.01

Request: Item `OC1(c2ccc(Cl)c(C(F)(F)F)c2)CCN(CCCC(c2ccc(F)cc2)c2ccc(F)cc2)CC1` has what recorded normalized growth?
Response: 0.321

Request: Item O=c1c(-c2ccc(O)cc2)coc2c(C3O[C@H](CO)[C@@H](O)[C@H](O)[C@H]3O)c(O)ccc12 (stereo not given in full) has what recorded normalized growth?
Response: 0.957

Request: Item `COc1c(O)cc2c(c1O)[C@H]1O[C@H](CO)[C@@H](O)[C@H](O)[C@@H]1OC2=O` has what recorded normalized growth?
Response: 1.01

Request: Item `O=C1CC2(CCCC2)CC(=O)N1CCCCN1CCN(c2ncccn2)CC1` has what recorded normalized growth?
Response: 1.02

###

- Measurement Notes: chemical genetic growth profiling, strain panel (AID 1159580)
- Experimental Context: S. cerevisiae deletion strains, growth OD, locus YKR026C, strain gcn3, stronger effect = lower value
The campaign covered roughly 5,500 compounds. About 2,000 (36%) were called active. Roughly 18% stayed inconclusive and do not appear here. The list shows a part of the results.
normalized growth under 1 gets true, anything at or over 1 gets false.

Request: Please determine if CC(=O)N1CCN(c2ccc(OCC3CO[C@](Cn4ccnc4)(c4ccc(Cl)cc4Cl)O3)cc2)CC1 (some centres undefined) is below 1 in terms of normalized growth.
Response: true

Request: Please determine if C[C@H]1[C@H](C)CC[C@]2(C(=O)O)CC[C@]3(C)C(=CCC4[C@@]5(C)C[C@@H](O)[C@H](O)[C@@](C)(CO)C5CC[C@]43C)[C@H]12 (some centres undefined) is below 1 in terms of normalized growth.
Response: false

Request: Please determine if Cc1ccccc1N1C(=O)c2cc(S(N)(=O)=O)c(Cl)cc2NC1C (centres undefined) is below 1 in terms of normalized growth.
Response: true

Request: Please determine if C[C@H]1[C@H](C)CC[C@]2(C(=O)O)CC[C@]3(C)C(=CCC4[C@@]5(C)C[C@@H](O)[C@H](O)[C@@](C)(CO)C5[C@H](O)C[C@]43C)[C@H]12 (some centres undefined) is below 1 in terms of normalized growth.
Response: true

###

- Measurement Notes: chemical genetic growth profiling, strain panel (AID 1159580)
- Experimental Context: S. cerevisiae deletion strains, growth OD, locus YML094W, strain GIM5, stronger effect = lower value
About 2,000 (36%) of roughly 5,500 compounds were called active. Not shown: some 18% with an inconclusive outcome. Some of the results follow.
Measure Name: normalized growth
Respond numerically, and do not add a unit to the figure.

Request: Item `Cn1c2c(c3ccccc31)/C(=N\OC(=O)c1ccc(Cl)cc1Cl)CCC2` has what recorded normalized growth?
Response: 1

Request: Item `CCOC(=O)c1nnc2cc(C)nn2c1C` has what recorded normalized growth?
Response: 0.968

Request: Item `CN1c2ccccc2C(=O)/C(=N/Nc2ccccc2F)S1(=O)=O` has what recorded normalized growth?
Response: 0.995

Request: Item `CC(=O)CS(=O)(=O)c1ccc(Cl)cc1` has what recorded normalized growth?
Response: 1.02

Request: Item `NC(=S)CS(=O)(=O)c1ccc(C(F)(F)F)cc1` has what recorded normalized growth?
Response: 1.01

Request: Item `COC(OC)c1ccc(C#N)c(=S)[nH]1` has what recorded normalized growth?
Response: 1.04

Request: Item `O=C1NC(=S)NC(=O)C1=Cc1cccc2ccccc12` has what recorded normalized growth?
Response: 0.954

Request: Item `COc1ccc(Br)c(-c2nnc(-c3ccccc3[N+](=O)[O-])o2)c1` has what recorded normalized growth?
Response: 1

Request: Item `O=C(Nc1ccccc1)N1CCN(C(c2ccccc2)c2ccccc2)CC1` has what recorded normalized growth?
Response: 1.04

Request: Item `O=[N+]([O-])c1ccc(Oc2c(Cl)cccc2Cl)c(Cl)c1Oc1c(Cl)cccc1Cl` has what recorded normalized growth?
Response: 1.01

Request: Item `CCOC(=O)/C(C#N)=C/N=C(N/N=C\c1c(Cl)cccc1Cl)SC` has what recorded normalized growth?
Response: 0.901

###

- Measurement Notes: chemical genetic growth profiling, strain panel (AID 1159580);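 also: tested at 20 µM; growth read once vehicle control cultures reached saturation at 30 °C; 1 = growth at the plate median or of vehicle wells; lower values mean less growth of the strain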
- Experimental Context: S. cerevisiae deletion strains, growth OD, locus YEL037C, strain rad23, stronger effect = lower value
Out of some 5,500 compounds screened, about 2,000 (36%) were called active. Roughly 18% stayed inconclusive and do not appear here. The list shows a part of the results.
For each of the molecules below, state its normalized growth.
Respond numerically, and do not add a unit to the figure.

Request: Item CC(=O)OCC(=O)[C@@]1(O)CCC2C3C[C@H](C)C4=CC(=O)C=CC4(C)C3[C@@H](O)CC21C (stereo partly drawn) has what recorded normalized growth?
Response: 1.02

Request: Item `COC1=CC(=O)C=C(OC)C1=O` has what recorded normalized growth?
Response: 1.01

Request: Item `COc1cc(C(=O)N2CCOCC2)cc(OC)c1OC` has what recorded normalized growth?
Response: 0.988

Request: Item C[C@H]1[C@H](C)CC[C@]2(C(=O)O)CC[C@]3(C)C(=CCC4[C@@]5(C)C[C@@H](O)[C@H](O)[C@@](C)(CO)C5CC[C@]43C)[C@H]12 (stereo partly drawn) has what recorded normalized growth?
Response: 1.03

Request: Item NCC(O)CC(=O)O (stereo not drawn) has what recorded normalized growth?
Response: 0.977

Request: Item NC[C@@H]1O[C@H](O[C@@H]2[C@@H](CO)OC(O[C@@H]3[C@@H](O)[C@H](N)C[C@H](N)[C@H]3O[C@H]3O[C@H](CO)[C@@H](O)[C@H](O)[C@H]3N)[C@@H]2O)[C@H](N)[C@@H](O)[C@@H]1O (stereo partly drawn) has what recorded normalized growth?
Response: 0.977

Request: Item `O=C(Oc1cccc2cccnc12)c1ccccc1` has what recorded normalized growth?
Response: 0.961

Request: Item `O=C(Oc1ccccc1C(=O)O)c1ccccc1O` has what recorded normalized growth?
Response: 0.965

###

For each of the compounds below, state its normalized growth.
- Measurement Notes: chemical genetic growth profiling, strain panel (AID 1159580);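 also: tested at 20 µM; growth read once vehicle control cultures reached saturation at 30 °C; 1 = growth at the plate median or of vehicle wells; lower values mean less growth of the strain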
- Experimental Context: S. cerevisiae deletion strains, growth OD, locus YOR184W, strain ser1, stronger effect = lower value
About 2,000 (36%) of roughly 5,500 compounds were called active. About 18% were inconclusive and are not listed. The list shows a part of the results.
Respond numerically, and do not add a unit to the figure.

Request: Item CCCCC(=O)O[C@]1(C(=O)CO)[C@@H](C)CC2C3CCC4=CC(=O)C=C[C@]4(C)[C@@]3(F)C(O)C[C@@]21C (stereo not given in full) has what recorded normalized growth?
Response: 0.984

Request: Item CCC(=O)OCC(=O)C1(OC(=O)CC)C(C)CC2C3CCC4=CC(=O)C=CC4(C)C3(Cl)C(O)CC21C (stereo not given) has what recorded normalized growth?
Response: 0.986

Request: Item `CC1(C)[C@@H]2CC[C@@]1(C)C(=O)C2` has what recorded normalized growth?
Response: 0.992

Request: Item `COc1c(O)cc2c(c1O)[C@H]1O[C@H](CO)[C@@H](O)[C@H](O)[C@@H]1OC2=O` has what recorded normalized growth?
Response: 1.02

Request: Item `O=C(Oc1ccccc1C(=O)O)c1ccccc1O` has what recorded normalized growth?
Response: 0.986

###

- Measurement Notes: chemical genetic growth profiling, strain panel (AID 1159580);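 also: tested at 20 µM; growth read once vehicle control cultures reached saturation at 30 °C; 1 = growth at the plate median or of vehicle wells; lower values mean less growth of the strain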
- Experimental Context: S. cerevisiae deletion strains, growth OD, locus YDR162C, strain NBP2, stronger effect = lower value
About 2,000 (36%) of roughly 5,500 compounds were called active. Not shown: some 18% with an inconclusive outcome. This is one part of the list.
normalized growth under 1 gets yes (1), anything at or over 1 gets no (0).

Request: Please determine if CCC(=O)OCC(=O)[C@@]1(OC(=O)CC)[C@@H](C)CC2C3CCC4=CC(=O)C=C[C@]4(C)C3(F)[C@@H](O)C[C@@]21C (stereo partly specified) is below 1 in terms of normalized growth.
Response: yes (1)

Request: Please determine if `COc1cccc2c1CCC1=CC(=O)CC[C@@]12C` is below 1 in terms of normalized growth.
Response: yes (1)

Request: Please determine if `COc1ccccc1N1CCN(CCCNc2cc(=O)n(C)c(=O)n2C)CC1` is below 1 in terms of normalized growth.
Response: yes (1)

Request: Please determine if CCC(=O)OCC(=O)C1(OC(=O)CC)C(C)CC2C3CCC4=CC(=O)C=CC4(C)C3(Cl)C(O)CC21C (stereo unspecified) is below 1 in terms of normalized growth.
Response: no (0)

Request: Please determine if CC(C)=CC1C(CO)C1(C)C (stereo unspecified) is below 1 in terms of normalized growth.
Response: no (0)
